- test.details: Cytotoxicity assay (CPE) on Vero cells
- Format: cell-based
- condition.summary: African green monkey
measurement.name: CC50 at 3 days (µM)

{"compound": "CN1CCN(c2ccc3c(c2)C(=O)N(c2ccc(Cl)cc2)C3)CC1 [Compound D3]", "units.text": "µM", "reported.result": 42.4}

* * *

Quick list: CC50 at 3 days per entry.
- test.details: Cytotoxicity assay (CPE) on Vero cells
- Assay type: cell-based
- condition.summary: African green monkey; Vero cells, 3 days of incubation, Reed–Muench; read-out: CC50
- Procedure: An in-vitro antiviral assay was established using the Africa monkey kidney cell line Vero which was infected with different EV-A71 clinical isolates (BrCr, H, Shenzhen98 and Jiangsu52). […] The selectivity index (SI) was calculated as CC50/EC50. […] The cytotoxic effects of compounds on Vero cells were detected by the cytopathic effect (CPE) assay. […]
measurement.name: CC50 at 3 days (µM)

{"molecule": "COc1ccc(N2Cc3ccccc3C2=O)cc1 [Compound A7, 2-(4-methoxyphenyl)isoindolin-1-one]", "measurement.name": "CC50 at 3 days", "reported.result": 318}
{"molecule": "COc1ccc(N2Cc3ccc(N)cc3C2=O)cc1 [Compound 4]", "measurement.name": "CC50 at 3 days", "reported.result": 231}
{"molecule": "O=C1c2ccccc2CN1c1ccc(Cl)cc1Cl [Compound A5, 2-(2,4-dichlorophenyl)isoindolin-1-one]", "measurement.name": "CC50 at 3 days", "reported.result": 68.4}
{"molecule": "O=C1c2cc(-c3ccccc3)ccc2CN1c1ccc(Cl)cc1 [Compound D1]", "measurement.name": "CC50 at 3 days", "reported.result": 115}
{"molecule": "CCCN(CCC)c1ccc2c(c1)CN(c1ccc(OC)cc1)C2=O [Compound B4]", "measurement.name": "CC50 at 3 days", "reported.result": 124}
{"molecule": "O=C(c1ccc(N2Cc3ccccc3C2=O)cc1)N1CCOCC1 [Compound A12]", "measurement.name": "CC50 at 3 days", "reported.result": 180}
{"molecule": "O=C1c2ccccc2CN1c1ccc(Br)cc1 [Compound A4, 2-(4-bromophenyl)isoindolin-1-one]", "measurement.name": "CC50 at 3 days", "reported.result": 173}
{"molecule": "CCC(=O)Nc1ccc2c(c1)CN(c1ccc(C)cc1)C2=O [Compound C3]", "measurement.name": "CC50 at 3 days", "reported.result": 113}

* * *

- test.details: Cytotoxicity assay (CPE) on Vero cells
- Format: cell-based
- condition.summary: African green monkey; Vero cells, 3 days of incubation, Reed–Muench; read-out: CC50
- Experimental: An in-vitro antiviral assay was established using the Africa monkey kidney cell line Vero which was infected with different EV-A71 clinical isolates (BrCr, H, Shenzhen98 and Jiangsu52). […] The selectivity index (SI) was calculated as CC50/EC50. […] The cytotoxic effects of compounds on Vero cells were detected by the cytopathic effect (CPE) assay. […]
Under this convention, label 1 denotes CC50 at 3 days strictly below 200 µM and label 0 denotes CC50 at 3 days at or above 200 µM.

{"molecule": "Cc1ccc(N2Cc3cc(N)ccc3C2=O)cc1 [Compound 6, 5-amino-2-(p-tolyl)isoindolin-1-one]", "group": "label 1"}
{"molecule": "CCCN(CCC)c1ccc2c(c1)C(=O)N(c1ccc(OC)cc1)C2 [Compound B2]", "group": "label 0"}
{"molecule": "O=C1c2ccccc2CN1c1ccc(F)cc1 [Compound A2, 2-(4-fluorophenyl)isoindolin-1-one]", "group": "label 0"}
{"molecule": "CCOC(=O)c1ccc(OCCC2CCN(c3ccc(C)nn3)CC2)cc1 [pirodavir, reference compound]", "group": "label 1"}
{"molecule": "CCC(=O)Nc1ccc2c(c1)CN(c1ccc(OC)cc1)C2=O [Compound C2]", "group": "label 0"}
{"molecule": "O=C(O)c1ccc(N2Cc3ccccc3C2=O)cc1 [Compound A10, 4-(1-oxoisoindolin-2-yl)benzoic acid]", "group": "label 1"}
{"molecule": "CCC(=O)Nc1ccc2c(c1)C(=O)N(c1ccc(OC)cc1)C2 [Compound C1]", "group": "label 1"}
{"molecule": "COc1cc(N2Cc3ccccc3C2=O)cc(OC)c1OC [Compound A8]", "group": "label 1"}
